MRT: recorded values
# experimentNotes: Pharmacokinetic determination in mice (plasma)
# Format: in vivo, C57BL/6J mice
# measurementParameters: male, C57BL/6J, mouse, 5 mg/kg, C57 mice, PO administration, 5 mpk, read-out: Mean residence time MRT
Numeric only. Scale: h

The cases that follow already have their MRT on record.
compound	measurementUnit	measured
O=C1c2c(cccc2C(F)(F)F)CN1c1ccc(N[C@H]2CC[C@H](Nc3ncc(C(F)(F)F)nn3)C2)nc1 [Example 157]	h	2.6
Cc1cc2c(cn1)CN(c1ccc(N[C@H]3CC[C@H](Nc4nc5cc(C(F)(F)F)ccn5n4)C3)nc1)C2=O [Example 156]	h	3.2

Then there is this compound:
Reported MRT, compound Cc1nccc2c1CN(c1ccc(N[C@H]3CC[C@H](Nc4ncc(OC(F)F)cn4)C3)nc1)C2=O [Example 115] : ____ 5.3

---

# experimentNotes: Pharmacokinetic determination in mice (plasma)
# Format: in vivo, C57BL/6J mice
# measurementParameters: male, C57BL/6J, mouse, 5 mg/kg, C57 mice, PO administration, 5 mpk, read-out: Area under the curve AUC0-∞
reportedProperty: AUC(0-inf)
Remember to put the unit after the number in your answer.

Some molecules with recorded AUC(0-inf):
molecule	AUC(0-inf)
O=C1c2ncccc2CN1c1ccc(N[C@H]2CC[C@H](Nc3ncc(C(F)(F)F)cn3)C2)nc1 [Example 134]	76600 ng·h/mL
O=C1c2ncccc2CN1c1ccc(N[C@H]2CC[C@H](Nc3ncc(C(F)(F)F)nn3)C2)nc1 [Example 144]	15000 ng·h/mL
Cc1cc2c(cn1)CN(c1ccc(N[C@H]3CC[C@H](Nc4nc5cc(F)ccn5n4)C3)nc1)C2=O [Example 147]	52000 ng·h/mL

// next entry
Report AUC(0-inf) for Cc1cc2c(cn1)CN(c1ccc(N[C@H]3CC[C@H](Nc4ncc(OC(F)F)cn4)C3)nc1)C2=O [Example 116] please. 42500 ng·h/mL

---

# experimentNotes: Pharmacokinetic determination in mice (plasma)
# Format: in vivo, C57BL/6J mice
# measurementParameters: C57 mice, PO administration, 5 mpk
reportedProperty: log10(Time to peak tmax) (log10 of the value in h)
Plainly stated, the numbers are log10 of Time to peak tmax given in h.

compound	reportedProperty	measured
Cc1cc2c(cn1)CN(c1ccc(N[C@H]3CC[C@H](Nc4nc5cc(F)ccn5n4)C3)nc1)C2=O [Example 147]	log10(Time to peak tmax)	0.30
Cc1cc2c(cn1)CN(c1ccc(N[C@H]3CC[C@H](Nc4ncc(C(F)(F)F)nn4)C3)nc1)C2=O [Example 148]	log10(Time to peak tmax)	0.00
O=C1c2c(cccc2C(F)(F)F)CN1c1ccc(N[C@H]2CC[C@H](Nc3ncc(C(F)(F)F)nn3)C2)nc1 [Example 157]	log10(Time to peak tmax)	-0.30

Lab note: next compound to report on.
Can you look up the measured log10(Time to peak tmax) of O=C1c2cc(C(F)(F)F)ncc2CN1c1ccc(N[C@H]2CC[C@H](Nc3nc4cc(F)ccn4n3)C2)nc1 [Example 151] for me? 0.30

---

# experimentNotes: Pharmacokinetic determination in mice (plasma)
# Format: in vivo, C57BL/6J mice
# measurementParameters: male, C57BL/6J, mouse, 5 mg/kg, C57 mice, PO administration, 5 mpk, read-out: Half-life t1/2 (converted)
# Protocol: C57BL/6J mice were used as test animals to study the pharmacokinetic behavior of the compounds of the present disclosure in mice (plasma) after oral and intravenous administration. C57 mice, male, purchased from Shanghai Bk Lab Animal Co., Ltd., with animal production license number (SCXK (Shanghai) 2013-0006 NO.311620400001794). • Preparation of oral drug: 10% Solutol HS15 […] The main pharmacokinetic parameters were calculated using WinNonlin 6.1.
Response field class: enum, chosen by comparing half-life against lower segment (below 4 h), middle segment (4 h to below 6 h), upper segment (6 h or more)

// known answers, use as guide
compoundStructure	answerLabel
Cc1cc2c(cn1)CN(c1ccc(N[C@H]3CC[C@H](Nc4nc5cc(F)ccn5n4)C3)nc1)C2=O	middle segment
O=C1c2cc(C(F)(F)F)ncc2CN1c1ccc(N[C@H]2CC[C@H](Nc3nc4cc(F)ccn4n3)C2)nc1	upper segment
Cc1nccc2c1CN(c1ccc(N[C@H]3CC[C@H](Nc4nc5cc(F)ccn5n4)C3)nc1)C2=O	middle segment

Input Cc1cc2c(cn1)CN(c1ccc(N[C@H]3CC[C@H](Nc4ncc(C(F)(F)F)nn4)C3)nc1)C2=O ; output its category lower segment

Class for O=C1c2cccnc2CN1c1ccc(N[C@H]2CC[C@H](Nc3ncc(C(F)(F)F)nn3)C2)nc1 ? lower segment

GET /class?item= O=C1c2c(cccc2C(F)(F)F)CN1c1ccc(N[C@H]2CC[C@H](Nc3ncc(C(F)(F)F)nn3)C2)nc1 lower segment

Which bin should I file O=C1c2cccnc2CN1c1ccc(N[C@H]2CC[C@H](Nc3ncc(OC(F)F)cn3)C2)nc1 under? middle segment

Sort into band: O=C1c2cccnc2CN1c1ccc(N[C@H]2CC[C@H](Nc3ncc(C(F)(F)F)cn3)C2)nc1 upper segment

Could you place O=C1c2ncccc2CN1c1ccc(N[C@H]2CC[C@H](Nc3ncc(OC(F)(F)F)cn3)C2)nc1 in its proper category? Many thanks. upper segment

Pick a category. Item: Cc1nccc2c1CN(c1ccc(N[C@H]3CC[C@H](Nc4ncc(OC(F)F)cn4)C3)nc1)C2=O middle segment

Bin this entry: Cc1ccn2nc(N[C@H]3CC[C@H](Nc4ccc(-n5ccccc5=O)cn4)C3)nc2c1 middle segment

Could you place O=C1c2cccc(C(F)(F)F)c2CN1c1ccc(N[C@H]2CC[C@H](Nc3ncc(C(F)(F)F)nn3)C2)nc1 in its proper category? Many thanks. upper segment

Data origin, for the record: patent US20250326722A1
